Experiment: Plasma half-life was determined in Sprague-Dawley rats after 0-8 hr of administration
Type: ADME, organism-based
Details: rat
Measured half-life accompanies every entry in the list below.
observable: half-life (min)

| molecule | measured result |
| --- | --- |
| COc1cccc(N2CCC[C@H]2C(=O)N[C@@H](Cc2ccc(-c3c(OC)cccc3OC)cc2)C(=O)O)c1 | 42 |
| COc1cccc(OC)c1-c1ccc(C[C@H](NC(=O)[C@@H]2CCCN2c2ccccc2C#N)C(=O)O)cc1 | 18 |
| COc1cccc(OC)c1-c1ccc(C[C@H](NC(=O)[C@@H]2CCCN2c2ccccc2)C(=O)O)cc1 | 36 |
| COc1cccc(OC)c1-c1ccc(CC(NC(=O)C2CCCN2S(=O)(=O)c2ccccc2)C(=O)O)cc1 (configuration not stated) | 36 |
| COc1cccc(OC)c1-c1ccc(C[C@H](NC(=O)[C@@H]2CCCN2c2cccnc2)C(=O)O)cc1 | 12 |
| COc1cccc(OC)c1-c1ccc(C[C@H](NC(=O)[C@@H]2CCCN2c2ccc([N+](=O)[O-])cc2)C(=O)O)cc1 | 84 |
| COc1cccc(OC)c1-c1ccc(C[C@H](NC(=O)[C@@H]2CCCN2c2ccccn2)C(=O)O)cc1 | 18 |

----------
Experiment: Plasma clearance rate in Sprague-Dawley rats
Assay type: ADME, organism-based
Settings: rat, read-out: Clp

| molecule | clearance |
| --- | --- |
| COc1cccc(OC)c1-c1ccc(CC(NC(=O)C2(S(=O)(=O)c3ccccc3)CCCC2)C(=O)O)cc1 (centres undefined) | 122 mL/min/kg |
| COc1cccc(OC)c1-c1ccc(C[C@H](NC(=O)[C@@H]2CCCN2c2ccccc2)C(=O)O)cc1 | 78 mL/min/kg |
| COc1cccc(OC)c1-c1ccc(C[C@H](NC(=O)[C@@H]2CCCN2c2ccccn2)C(=O)O)cc1 | 29 mL/min/kg |
| COc1cccc(OC)c1-c1ccc(CC(NC(=O)C2(c3ccccc3)CCCC2)C(=O)O)cc1 (centres undefined) | 22 mL/min/kg |
| COc1cccc(OC)c1-c1ccc(C[C@H](NC(=O)[C@@H]2CCCN2c2cccnc2)C(=O)O)cc1 | 43 mL/min/kg |
| COc1cccc(OC)c1-c1ccc(C[C@H](NC(=O)[C@@H]2CCCN2c2ccccc2C#N)C(=O)O)cc1 | 69 mL/min/kg |
| COc1cccc(OC)c1-c1ccc(C[C@H](NC(=O)[C@@H]2CCCN2c2ccc([N+](=O)[O-])cc2)C(=O)O)cc1 | > 100 mL/min/kg |
| COc1cccc(OC)c1-c1ccc(CC(NC(=O)C2CCCN2S(=O)(=O)c2ccccc2)C(=O)O)cc1 (centres undefined) | 127 mL/min/kg |
| COc1cccc(N2CCC[C@H]2C(=O)N[C@@H](Cc2ccc(-c3c(OC)cccc3OC)cc2)C(=O)O)c1 | 64 mL/min/kg |

----------
Target: Integrin alpha-4/beta-7 (Homo sapiens, UniProt P13612+P26010)
Sequence (P13612 whole entry): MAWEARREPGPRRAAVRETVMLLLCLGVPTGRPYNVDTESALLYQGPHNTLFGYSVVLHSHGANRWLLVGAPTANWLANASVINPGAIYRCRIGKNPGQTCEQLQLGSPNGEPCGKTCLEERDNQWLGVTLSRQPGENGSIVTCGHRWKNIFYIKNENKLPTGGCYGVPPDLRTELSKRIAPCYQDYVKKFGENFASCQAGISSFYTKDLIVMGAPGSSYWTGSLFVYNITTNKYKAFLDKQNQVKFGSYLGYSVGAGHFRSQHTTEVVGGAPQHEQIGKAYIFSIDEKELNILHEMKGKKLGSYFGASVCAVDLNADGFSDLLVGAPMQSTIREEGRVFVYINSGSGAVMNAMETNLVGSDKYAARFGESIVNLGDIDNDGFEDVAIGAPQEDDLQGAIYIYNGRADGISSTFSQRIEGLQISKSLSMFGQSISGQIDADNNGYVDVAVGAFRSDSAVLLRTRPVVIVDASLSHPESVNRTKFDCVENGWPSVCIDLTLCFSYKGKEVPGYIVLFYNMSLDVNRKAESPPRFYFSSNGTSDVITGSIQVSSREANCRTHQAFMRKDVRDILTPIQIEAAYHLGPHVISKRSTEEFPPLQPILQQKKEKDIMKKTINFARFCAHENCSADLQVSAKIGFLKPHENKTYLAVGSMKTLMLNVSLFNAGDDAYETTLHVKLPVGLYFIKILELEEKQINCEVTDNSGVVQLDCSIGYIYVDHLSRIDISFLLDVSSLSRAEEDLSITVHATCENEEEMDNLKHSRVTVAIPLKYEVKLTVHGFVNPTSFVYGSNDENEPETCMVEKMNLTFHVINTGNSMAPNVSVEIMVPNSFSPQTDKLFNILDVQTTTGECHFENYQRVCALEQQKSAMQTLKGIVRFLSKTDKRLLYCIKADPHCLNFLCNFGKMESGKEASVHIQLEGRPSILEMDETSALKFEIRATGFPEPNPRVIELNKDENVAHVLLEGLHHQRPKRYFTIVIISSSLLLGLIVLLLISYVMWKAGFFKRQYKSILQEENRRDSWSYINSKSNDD
Sequence (P26010 whole entry): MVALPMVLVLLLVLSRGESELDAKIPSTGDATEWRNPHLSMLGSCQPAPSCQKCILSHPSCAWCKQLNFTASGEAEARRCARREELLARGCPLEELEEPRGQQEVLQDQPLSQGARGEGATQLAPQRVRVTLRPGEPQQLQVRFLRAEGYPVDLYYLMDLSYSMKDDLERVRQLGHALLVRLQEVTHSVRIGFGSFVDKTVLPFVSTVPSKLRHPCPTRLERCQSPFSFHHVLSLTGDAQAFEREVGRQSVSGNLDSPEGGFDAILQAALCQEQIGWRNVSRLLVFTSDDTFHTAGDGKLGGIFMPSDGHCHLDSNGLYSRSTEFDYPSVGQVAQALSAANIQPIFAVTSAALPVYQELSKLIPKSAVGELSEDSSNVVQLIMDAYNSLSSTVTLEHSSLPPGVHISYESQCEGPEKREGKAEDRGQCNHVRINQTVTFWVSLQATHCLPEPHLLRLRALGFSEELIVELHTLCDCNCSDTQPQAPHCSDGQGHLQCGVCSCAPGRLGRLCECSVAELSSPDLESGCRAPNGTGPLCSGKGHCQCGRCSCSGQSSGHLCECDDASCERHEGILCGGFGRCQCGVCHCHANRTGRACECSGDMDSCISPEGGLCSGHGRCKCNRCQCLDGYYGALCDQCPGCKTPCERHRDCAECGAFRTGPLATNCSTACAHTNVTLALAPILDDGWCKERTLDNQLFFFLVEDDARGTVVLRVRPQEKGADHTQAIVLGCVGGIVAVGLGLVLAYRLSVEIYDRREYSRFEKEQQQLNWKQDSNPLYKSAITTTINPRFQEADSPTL
Test: Inhibition of [125I]MAdCAM-Ig binding to human integrin alpha4-beta7 of RPMI-8866 cells
Lab note - cut at 20 nM for IC50: 1.0 if strictly below, 0.0 if not.

| molecule | label value |
| --- | --- |
| COc1cccc(OC)c1-c1ccc(C[C@H](NC(=O)[C@@H]2CCCN2c2ccccn2)C(=O)O)cc1 | 1.0 |
| COc1cccc(OC)c1-c1ccc(C[C@H](NC(=O)[C@@H]2CCCN2c2cc([N+](=O)[O-])cc([N+](=O)[O-])n2)C(=O)O)cc1 | 1.0 |
| COc1cccc(OC)c1-c1ccc(CC(NC(=O)C2(S(=O)(=O)c3ccccc3)CCCC2)C(=O)O)cc1 (stereo not given) | 1.0 |
| COc1cccc(OC)c1-c1ccc(C[C@H](NC(=O)[C@@H]2CCCN2c2cncc3ccccc23)C(=O)O)cc1 | 0.0 |
| COc1cccc(OC)c1-c1ccc(CC(NC(=O)C2CCCN2S(=O)(=O)c2ccccc2)C(=O)O)cc1 (stereo not given) | 1.0 |

----------
Molecular target: Integrin alpha-4/beta-1 (Homo sapiens, UniProt P05556+P13612)
Sequence (P05556 whole entry, one chain of several): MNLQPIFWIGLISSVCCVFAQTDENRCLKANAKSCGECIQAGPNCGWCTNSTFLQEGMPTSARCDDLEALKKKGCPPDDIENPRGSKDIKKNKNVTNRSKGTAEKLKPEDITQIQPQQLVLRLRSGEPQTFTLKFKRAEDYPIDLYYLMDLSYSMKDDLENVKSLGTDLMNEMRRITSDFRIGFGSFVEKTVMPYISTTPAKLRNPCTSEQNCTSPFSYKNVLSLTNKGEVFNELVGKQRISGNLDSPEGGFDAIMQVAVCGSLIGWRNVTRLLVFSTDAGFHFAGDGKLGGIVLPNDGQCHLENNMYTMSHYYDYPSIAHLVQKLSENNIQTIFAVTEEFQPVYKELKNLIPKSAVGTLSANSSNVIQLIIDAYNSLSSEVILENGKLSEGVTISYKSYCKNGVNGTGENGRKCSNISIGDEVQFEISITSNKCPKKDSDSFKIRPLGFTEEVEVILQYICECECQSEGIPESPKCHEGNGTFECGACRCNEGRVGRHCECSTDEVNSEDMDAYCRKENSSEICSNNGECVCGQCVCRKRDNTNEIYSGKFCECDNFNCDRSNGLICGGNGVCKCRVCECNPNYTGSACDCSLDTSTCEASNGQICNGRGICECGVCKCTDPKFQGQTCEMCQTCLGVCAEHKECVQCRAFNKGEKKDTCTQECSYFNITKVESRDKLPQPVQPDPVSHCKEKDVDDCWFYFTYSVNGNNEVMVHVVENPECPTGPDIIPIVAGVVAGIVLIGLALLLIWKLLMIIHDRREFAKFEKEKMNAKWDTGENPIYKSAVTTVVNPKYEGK
Test: Inhibition of [125I]VCAM-Ig binding to human integrin alpha4-beta1 (VLA-4) of Jurkat cells
observable: log10(IC50) (log10 of the value in nM)

| compound | system name | log10(IC50) |
| --- | --- | --- |
| COc1cccc(OC)c1-c1ccc(CC(NC(=O)C2CCCN2S(=O)(=O)c2ccccc2)C(=O)O)cc1 (stereo not drawn) | Integrin alpha-4/beta-1 (Homo sapiens, UniProt P05556+P13612) | -1.30 |
| COc1cccc(OC)c1-c1ccc(C[C@H](NC(=O)[C@@H]2CCCN2c2ccccc2)C(=O)O)cc1 | Integrin alpha-4/beta-1 (Homo sapiens, UniProt P05556+P13612) | -0.21 |
| COc1cccc(OC)c1-c1ccc(C[C@H](NC(=O)[C@@H]2CCCN2c2cnccn2)C(=O)O)cc1 | Integrin alpha-4/beta-1 (Homo sapiens, UniProt P05556+P13612) | -0.77 |
| COc1cccc(OC)c1-c1ccc(C[C@H](NC(=O)[C@@H]2CCCN2c2ccccn2)C(=O)O)cc1 | Integrin alpha-4/beta-1 (Homo sapiens, UniProt P05556+P13612) | 0.28 |
| COc1cccc(OC)c1-c1ccc(C[C@H](NC(=O)[C@@H]2CCCN2c2ccccc2C#N)C(=O)O)cc1 | Integrin alpha-4/beta-1 (Homo sapiens, UniProt P05556+P13612) | -0.43 |
| COc1cccc(OC)c1-c1ccc(C[C@H](NC(=O)[C@@H]2CCCN2c2cc([N+](=O)[O-])cc([N+](=O)[O-])n2)C(=O)O)cc1 | Integrin alpha-4/beta-1 (Homo sapiens, UniProt P05556+P13612) | -0.42 |
| COc1cccc(OC)c1-c1ccc(C[C@H](NC(=O)[C@@H]2CCCN2c2cncc3ccccc23)C(=O)O)cc1 | Integrin alpha-4/beta-1 (Homo sapiens, UniProt P05556+P13612) | 0.04 |
| COc1cccc(N2CCC[C@H]2C(=O)N[C@@H](Cc2ccc(-c3c(OC)cccc3OC)cc2)C(=O)O)c1 | Integrin alpha-4/beta-1 (Homo sapiens, UniProt P05556+P13612) | -0.39 |
| COc1cccc(OC)c1-c1ccc(C[C@H](NC(=O)[C@@H]2CCCN2c2cccnc2)C(=O)O)cc1 | Integrin alpha-4/beta-1 (Homo sapiens, UniProt P05556+P13612) | -0.47 |
| COc1cccc(OC)c1-c1ccc(C[C@H](NC(=O)[C@@H]2CCCN2c2ccc([N+](=O)[O-])cc2)C(=O)O)cc1 | Integrin alpha-4/beta-1 (Homo sapiens, UniProt P05556+P13612) | 0.04 |
| COc1cccc(OC)c1-c1ccc(CC(NC(=O)C2(S(=O)(=O)c3ccccc3)CCCC2)C(=O)O)cc1 (stereo not drawn) | Integrin alpha-4/beta-1 (Homo sapiens, UniProt P05556+P13612) | -0.96 |
| COc1cccc(OC)c1-c1ccc(C[C@H](NC(=O)[C@@H]2CCCN2c2cncnc2)C(=O)O)cc1 | Integrin alpha-4/beta-1 (Homo sapiens, UniProt P05556+P13612) | -0.14 |
| COc1cccc(OC)c1-c1ccc(CC(NC(=O)C2(c3ccccc3)CCCC2)C(=O)O)cc1 (stereo not drawn) | Integrin alpha-4/beta-1 (Homo sapiens, UniProt P05556+P13612) | 0.51 |
